system: RPMI-8226 leukemia; experiment: NCI tumour cell line growth inhibition, 384-well format
Measured GI50 of individual entries

Solved entries (count: 3):
> print(dat)
                                   compound  recordedvalue
1  CN1CCN(c2cc(C(=O)Nc3cc4cc(-c5cnn(C)c5)ccc4cn3)ccn2)CC1      0.0245 µM
2  CC#C/C(=N\OC[C@H]1COCCN1)c1ccc2ncnc(Nc3ccc(OCc4cccc(F)c4)c(Cl)c3)c2c1       0.959 µM
3  Nc1ncnc2c1c(-c1cccc(OCc3ccccc3)c1)cn2C1CC(CN2CCC2)C1 (centres undefined)        1.83 µM

Now for a further compound.
q: Give the value of GI50 reported for the following: `C[C@@H](CN1CC(=O)NC(=O)C1)N1CC(=O)NC(=O)C1`
a: 3.65 µM

###

tested on: MALME-3M melanoma; test: NCI tumour cell line growth inhibition, 384-well format; in the data active means GI50 below about 0.43 µM; inactive means the rest
Please state which outcome applies, choosing from active, inactive

Recorded results for 3 molecules are shown here.
> print(dat)
                          compoundstructure  assignedclass
1  CN1C(=O)[C@@H](NC(=O)[C@H](CCC(F)(F)F)[C@H](CCC(F)(F)F)C(N)=O)N=C(c2ccccc2)c2ccccc21       inactive
2  CN1CCN(c2cc(C(=O)Nc3cc4cc(-c5cnn(C)c5)ccc4cn3)ccn2)CC1         active
3  COc1cc(Nc2ncc(F)c(Nc3ccc4c(n3)NC(=O)C(C)(C)O4)n2)cc(OC)c1OC       inactive

Let us examine a further case.
q: In this assay, the call recorded for `C[C@@H]1Cc2c([nH]c3ccccc23)[C@@H](c2c(F)cc(NC3CN(CCCF)C3)cc2F)N1CC(F)(F)CO` was what?
a: inactive

###

tested on: HOP-62 NSCLC; assay: NCI tumour cell line growth inhibition, 384-well format; in the data active = GI50 below about 0.43 µM; inactive = the rest
Please state which outcome applies, choosing from label 1 = active, label 0 = inactive

q: In this assay, the call recorded for `COc1cc(Nc2ncc(F)c(Nc3ccc4c(n3)NC(=O)C(C)(C)O4)n2)cc(OC)c1OC` was what?
a: label 0

q: In this assay, the call recorded for `C[C@@H]1Cc2c([nH]c3ccccc23)[C@@H](c2c(F)cc(NC3CN(CCCF)C3)cc2F)N1CC(F)(F)CO` was what?
a: label 0

q: In this assay, the call recorded for `CN1CCN(c2cc(C(=O)Nc3cc4cc(-c5cnn(C)c5)ccc4cn3)ccn2)CC1` was what?
a: label 1

q: In this assay, the call recorded for Nc1ncnc2c1c(-c1cccc(OCc3ccccc3)c1)cn2C1CC(CN2CCC2)C1 (centres undefined) was what?
a: label 0

###

Measured TGI of individual entries
tested on: MDA-MB-231 breast; test: NCI tumour cell line growth inhibition, 384-well format
API: value field is a number in µM; no unit string.

Solved entries (count: 2):
> print(dat)
                                   compound  recordedvalue
1  COc1cc(Nc2ncc(F)c(Nc3ccc4c(n3)NC(=O)C(C)(C)O4)n2)cc(OC)c1OC             97
2  C[C@@H]1Cc2c([nH]c3ccccc23)[C@@H](c2c(F)cc(NC3CN(CCCF)C3)cc2F)N1CC(F)(F)CO           12.1

Now for a further compound.
q: Give the value of TGI reported for the following: Nc1ncnc2c1c(-c1cccc(OCc3ccccc3)c1)cn2C1CC(CN2CCC2)C1 (centres undefined)
a: 3.34
